Each entry below lists one item and its recorded MIC value.
# System: T. mentagrophytes CDC
Dear colleague, please return just the value in µg/mL, with no unit written.

Compound | Value
C=C1C(=O)c2ccccc2OC1c1ccc(OC)cc1 (stereo not drawn) [Ex. 8, 4'-methoxy-3-methylene flavanone] | 12.5

Turning now to a further compound:
Tested on T. mentagrophytes CDC: C=C1C(=O)c2ccccc2OC1(c1ccccc1)c1cccs1 (stereo not drawn) [Ex. 21, 3-Methylene-2-(2-thienyl) flavanone] . Observed MIC: 12.5

---

Here we list compounds with their recorded MIC when tested on C. albicans NRRL Y-477.
Use µg/mL as the unit, but write only the number.

Some entries whose results are on file:
Compound | Measurement type | Value
C=C1C(=O)c2ccccc2OC1c1cccc(OC)c1 (centres unmarked) | MIC | 100
C=C1C(=O)c2ccc(OC)cc2OC1c1ccc(Cl)cc1 (centres unmarked) | MIC | 50

Now examine the next entry.
Memo: C=C1C(=O)c2ccccc2OC1c1cccc([N+](=O)[O-])c1 (centres unmarked) , reported MIC: 50
